# System: RPMI-8226
# Assay Name: NCI tumour cell line growth inhibition, 48 h
Activity calls are given as the source filed them. Rule as the data show it: active = GI50 up to about 1.1 µM and inactive = higher.
Would you mind telling me the reported GI50 of each entry?

GET /values?readout=GI50&system=RPMI-8226&item= C[C@]12CC(C#N)C(=O)C(O)=C1CC[C@@H]1C2CC[C@@]2(C)C1CC[C@@H]2O (stereo not given in full) 7 µM (inactive)

GET /values?readout=GI50&system=RPMI-8226&item= CC1=CC(=O)C2=C(C)CCC3C(C)C(=O)OC3C12 (stereo not given) > 100 µM (inactive)

GET /values?readout=GI50&system=RPMI-8226&item= "CCOC(=O)Nc1cc2ccccc2c(/N=N/c2ccccc2)c1O" > 100 µM (inactive)

GET /values?readout=GI50&system=RPMI-8226&item= CC(C)=CC1(C)/C(=N\O)C(C)(CC(C)C)C(=O)N1O (stereo not given) > 100 µM (inactive)

GET /values?readout=GI50&system=RPMI-8226&item= "C[C@@]12[C@H]3CC[C@@H]1[C@H](O)C(=O)N2CC3" > 100 µM (inactive)

GET /values?readout=GI50&system=RPMI-8226&item= C=CC/N=C1\NC(=O)C(CC(=O)Nc2ccc(C)cc2)S1 (stereo not given) > 100 µM (inactive)

GET /values?readout=GI50&system=RPMI-8226&item= "O=C1C=CC2(C=C1)O[C@H](COCc1ccccc1)[C@@H](COCc1ccccc1)O2" 0.42 µM (active)

GET /values?readout=GI50&system=RPMI-8226&item= "C/C(=N\NS(=O)(=O)c1ccc(C)cc1)c1cc2ccccc2n1C" > 100 µM (inactive)

GET /values?readout=GI50&system=RPMI-8226&item= "O=C1C=C(c2[nH]c3ccccc3c2C2=CC(=O)c3ccccc3C2=O)C(=O)c2ccccc21" 33 µM (inactive)

GET /values?readout=GI50&system=RPMI-8226&item= CCCCCCCCCCCCCCCC(=O)Nc1ccn(C2OC(CO)C(O)C2O)c(=O)n1 (stereo not given) 42.2 µM (inactive)

###

# Tested on: OVCAR-8
# Assay Name: NCI tumour cell line growth inhibition, 48 h
Activity calls are given as the source filed them. Cut-off read from the data, not from the text of the source: active = GI50 up to about 1.1 µM and inactive = higher.
Test Readout: GI50

Would you kindly share the measured GI50 for CC(=O)Nc1ccc2c3c(cc(O)c2c1)N(C(=O)CCCCC(=O)Nc1ccc2c4c(cc(O)c2c1)N(C(=O)OC(C)(C)C)CC4CCl)CC3CCl (stereo not given) ? 3.08 µM (inactive)

Would you kindly share the measured GI50 for "COc1ccc2nc3c([N+](=O)[O-])ccc4c3c(c2c1)N=CN4CCN(C)C" ? 2.82 µM (inactive)

Would you kindly share the measured GI50 for "COC(=O)/C=C\C(C#N)(C#N)/N=C/c1cccs1" ? 3.76 µM (inactive)

Would you kindly share the measured GI50 for Cc1ccc(S(=O)(=O)C(CC(NC=O)S(=O)(=O)c2ccc(C)cc2)NC=O)cc1 (stereo not given) ? > 100 µM (inactive)

Would you kindly share the measured GI50 for CC(Cc1ccc(O)cc1)NCC(O)c1ccc(O)c(O)c1 (stereo not given) ? > 100 µM (inactive)

Would you kindly share the measured GI50 for "CN(C)CCCNc1c2c(=O)n(C)c(=O)nc-2n(C)c2ccccc12" ? 4.83 µM (inactive)

Would you kindly share the measured GI50 for "Cc1cccc2c1C(=O)[C@](C)([C@]1(C)Nc3cccc(C)c3C1=O)N2" ? 24 µM (inactive)

Would you kindly share the measured GI50 for C/C=C\C(CC(=O)NCCC1CN(S(=O)(=O)c2ccc(C)cc2)c2ccccc21)CC(=O)OC (stereo not given) ? > 100 µM (inactive)

Would you kindly share the measured GI50 for CCO[C@]12C[C@H](OC)[C@@]3(O)CC(C1[C@H]3O)C13C4C2[C@H](OC)C1[C@](COC)(CN4CC)[C@H](O)C[C@@H]3OC (stereo not given in full) ? > 100 µM (inactive)

Would you kindly share the measured GI50 for COc1ccc(/C=C2\CCC(C)(CN(C)C)C2=O)cc1 (stereo not given) ? > 100 µM (inactive)

Would you kindly share the measured GI50 for "COc1ccc(/C=C2\N=C(c3ccccc3)N(NC3=NC(=O)CC(=O)N3)C2=O)cc1" ? > 100 µM (inactive)

Would you kindly share the measured GI50 for "O=C1C=C(c2[nH]c3ccccc3c2C2=CC(=O)c3ccccc3C2=O)C(=O)c2ccccc21" ? 43.8 µM (inactive)

Would you kindly share the measured GI50 for "O=C1NC(=S)NC(=O)C1=Cc1cccc2cc3ccccc3cc12" ? 1.86 µM (inactive)

Would you kindly share the measured GI50 for COC(=O)c1ccccc1C1=C([N+](=O)[O-])C(c2cccc(Br)c2)C(C#N)=C(N)O1 (stereo not given) ? 21 µM (inactive)

Would you kindly share the measured GI50 for Cc1ccc(NC(=O)C(Cc2c[nH]c3ccccc23)NC(=O)Oc2ccccc2)cc1C (stereo not given) ? 57.5 µM (inactive)

Would you kindly share the measured GI50 for "COc1cc2c(cc1OCc1ccccc1)CNCC2" ? > 100 µM (inactive)

Would you kindly share the measured GI50 for "COc1cc2c([C@@H](OC(=O)c3ccccc3)c3ccc4c(c3)OCO4)nccc2c(OC)c1OC" ? 49.5 µM (inactive)

Would you kindly share the measured GI50 for "Nc1cc(CO)cc(Nc2c3ccccc3nc3occc23)c1" ? 35.7 µM (inactive)

Would you kindly share the measured GI50 for "Cc1nc(O)nc(N/N=C/c2c3ccccc3c(Cl)c3ccccc23)c1C(=O)Nc1ccc(Cl)cc1" ? 68.9 µM (inactive)

Would you kindly share the measured GI50 for CC1=N[C@](C)(C2CC3C=CC2C3=O)COC1=O (stereo not given in full) ? > 100 µM (inactive)
